FYI, the data here is from patent US20030022821A1.

- System: Staphylococcus aureus ATCC 25923
- Assay type: cell-based
- CONDITIONS_USED: ATCC 25923
Square brackets hold non-standard residues; d marks the D form. Peptide text beside a SMILES is read from it. * marks the point of attachment. Acm = CC(=O)NC*
READOUT_LABEL: MIC S. aureus (µg/mL)
# value in µg/mL; strip the unit string

As a guide, the following entries are already answered.
COMPOUND	MIC S. aureus [µg/mL]
N=C(N)NCCC[C@@H](N)C(=O)N[C@@H](Cc1c[nH]c2ccccc12)C(=O)N[C@H](Cc1c[nH]c2ccccc12)C(=O)N[C@@H](CCCNC(=N)N)C(=O)N[C@H](Cc1ccc(O)cc1)C(=O)N[C@@H](Cc1c[nH]c2ccccc12)C(=O)N[C@H](CCCNC(=N)N)C(N)=O [arg-TRP-trp-ARG-tyr-TRP-arg-CONH2] (H-[dR]W[dW]R[dY]W[dR]-NH2; N-terminus assumed)	5
CSCC[C@H](NC(=O)[C@H](CCCNC(=N)N)NC(=O)[C@H](Cc1ccc(-c2ccccc2)cc1)NC(=O)[C@H](CCC(N)=O)NC(=O)[C@H](Cc1c[nH]c2ccccc12)NC(=O)[C@H](CCCNC(=N)N)NC(=O)[C@H](CCCNC(=N)N)NC(=O)[C@H](CSCNC(C)=O)NC(=O)[C@H](CCCCN)NC(=O)[C@@H](N)Cc1ccccc1)C(=O)N[C@@H](CCCCN)C(=O)N[C@@H](CCCCN)C(=O)N[C@@H](CC(C)C)C(=O)NCC(=O)N[C@@H](C)C(=O)O [LFB Bip8]	15

In the following, a different compound is considered.
(Q) Given the compound CSCC[C@H](NC(=O)[C@H](CCC(=O)O)NC(=O)[C@H](Cc1c[nH]c2ccccc12)NC(=O)[C@H](CCC(N)=O)NC(=O)[C@H](Cc1c[nH]c2ccccc12)NC(=O)[C@H](CCCNC(=N)N)NC(=O)[C@H](CC(C)C)NC(=O)[C@H](CSCNC(C)=O)NC(=O)[C@H](CCCCN)NC(=O)[C@@H](N)CCCNC(=N)N)C(=O)N[C@@H](CCCNC(=N)N)C(=O)N[C@@H](CCCCN)C(=O)N[C@@H](Cc1ccc(O)cc1)C(=O)NCC(=O)NCC(=O)O [LFM R1 W8 Y13] (H-RKC(Acm)LRWQWEMRKYGG-OH; N-terminus and C-terminus assumed) , write its reported MIC S. aureus.
(A) 50
